- measured.target: constitutive proteasome β5c unit (Homo sapiens, UniProt P28074)
- protocol.text: Caliper-based proteasome enzymatic activity assay, β5c
- condition.summary: human recombinant constitutive proteasome 0.3 nM, FAM-labeled peptide substrate 1 μM, rt 3 h; read-out: β5c subunit IC50
Entries are sorted into classes by IC50 as follows: bin A = under 600 nM, bin B = from 600 nM up to 2000 nM, bin C = 2000 nM and over

1. CC(C)(C=C(C#N)C(=O)N1C[C@@H](F)[C@H](OC(=O)N[C@@H](Cc2ccccc2)B(O)O)C1)N1CCC(F)(F)C1    bin A

Would you mind sorting CC(C)(C=C(C#N)C(=O)N1CCC[C@H](CC(=O)N[C@@H](Cc2ccccc2)B(O)O)C1)N1CCC(F)(F)C1 into the appropriate category? bin A

Could you tell me which band CC(C)(C=C(C#N)C(=O)N1C[C@@H](F)[C@@H](OC(=O)N[C@@H](Cc2ccccc2)B(O)O)C1)N1CCC(F)(F)C1 belongs to? bin B

The entry to classify is C=CS(=O)(=O)N(C)c1cccc(C[C@H](NC(=O)c2cc(Cl)ccc2Cl)C(=O)N[C@@H](Cc2ccccc2)B(O)O)c1 ; which class holds it? bin A

State the class of the molecule shown: CC(C)(C=C(C#N)C(=O)N1CCCC[C@@H](OC(=O)N[C@@H](Cc2ccccc2)B(O)O)C1)N1CCOC2(CC2)C1 bin B

Band of CC(C)C=C(C#N)C(=O)N1CCCC[C@@H]1CNC(=O)N[C@@H](Cc1ccccc1)B(O)O ? bin C

Which bin, given its IC50, does COC(=O)N1CCN(C(C)(C)C=C(C#N)C(=O)N2CCCC[C@@H](OC(=O)N[C@@H](Cc3ccccc3)B(O)O)C2)CC1 occupy? bin B

Category lookup for the molecule C=CC(=O)N1C[C@@H](F)[C@H](OC(=O)N[C@@H](Cc2ccccc2)B(O)O)C1 bin C
